Where do the numbers come from? From PubChem BioAssay (NCATS).

conditions: Ebola virus entry assay, ratio channel
Activity calls are given as the source filed them.
Answer with one of the outcomes given here: T = active, F = inactive

Consider the following illustrative entries.
CCC1(CC)C(=O)NC(=O)NC1=O	F
Cc1cc(=O)oc2cc(O)ccc12	F
O=C(O)Cc1ccc(CCNS(=O)(=O)c2ccc(Cl)cc2)cc1	F

Data request: Entry C1CN2CCC1CC2 : call = ?
Data returned: F

Data request: Entry CC(C)N=C(N)/N=C(\N)Nc1ccc(Cl)cc1 : call = ?
Data returned: F

Data request: Entry O=C(O)CCCCCCNC1c2ccccc2CCc2ccccc21 : call = ?
Data returned: F

Data request: Entry C#C[C@]1(O)CC[C@H]2[C@@H]3CCc4cc(OC)ccc4[C@H]3CC[C@@]21C : call = ?
Data returned: T

###

details: Ebola virus entry assay, green fluorescence channel
Potency and affinity values are given separately.
Label Criterion met when efficacy is strictly below -20%; otherwise label Criterion not met.

Data request: Confirm or reject: efficacy of CC(=O)Oc1ccc(C2(c3ccc(OC(C)=O)cc3)Oc3ccccc3NC2=O)cc1 lies strictly below -20%
Data returned: Criterion met

###

conditions: Ebola virus entry assay, blue channel fluorescence
Active and inactive are the calls of the source.
Answer with one of the outcomes given here: active, inactive

Consider the following illustrative entries.
CC(C)=CCN1CC[C@@]2(C)c3cc(O)ccc3C[C@@H]1[C@@H]2C	active
C[C@@H]1CCN(C(=O)[C@H](CCCN=C(N)N)NS(=O)(=O)c2cccc3c2NC[C@H](C)C3)[C@@H](C(=O)O)C1	inactive
COc1ccc(CCN(C)CCCC(C#N)(c2cc(OC)c(OC)c(OC)c2)C(C)C)cc1OC (stereo not drawn)	active
CC(Cc1ccc2c(c1)OCO2)NO (stereo not drawn)	inactive
Fc1ccc(C(c2ccc(F)cc2)N2CCN(C/C=C/c3ccccc3)CC2)cc1	active

Data request: Entry C=CCCCCCCCCC(=O)O : call = ?
Data returned: inactive

Data request: Entry C[C@H](CN1CCOCC1)C(C(=O)N1CCCC1)(c1ccccc1)c1ccccc1 : call = ?
Data returned: active

Data request: Entry C[C@]12CC[C@H]3[C@@H](CCC4=CC(=O)CC[C@@H]43)[C@@H]1CC[C@@H]2O : call = ?
Data returned: inactive

###

test system: OV90; assay: Primary qHTS to identify gynecologic anti-cancer compounds using libraries of approved drugs and bioactive compounds (AID 1345084); conditions: Gynecologic cancer cell panel viability, ATPlite luminescence, 48 h; series mostly up to 57.5 µM; note: % is set by controls: 0 for no effect and ±100 for the full control effect; nearly all actives have a fitted effect of over 55% in size
Results filed as inconclusive are left out. Active and inactive are the calls of the source. The call rests on the fitted dose curve; in most records, active means well fitted cell-killing curve with a large enough effect; inconclusive means small, poorly fitted or top-dose-only effect, or effect the other way; inactive means flat fitted curve, though single readings scatter.
Answer with one of the outcomes given here: active, inactive

Consider the following illustrative entries.
OC(O)C(Cl)(Cl)Cl	inactive
CC(C)=C[C@@H]1[C@@H](C(=O)OCc2coc(Cc3ccccc3)c2)C1(C)C	inactive
COC(=O)C1=CCCN(C)C1	inactive

For the next question, use this compound.
Data request: Entry CN1C[C@@H](NS(=O)(=O)N(C)C)C[C@@H]2c3cccc4c3c(cn4C)C[C@H]21 : call = ?
Data returned: inactive

###

assay: Cell Viability - LYMP2-007 (AID 979); conditions: LYMP2-007 lymphoblastoid cell viability; series mostly up to 92.2 µM;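 note: cells exposed to compound for 24 h before reading; nearly all actives have a fitted effect of over 60% in size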
Results filed as inconclusive are left out. Activity calls are given as the source filed them. Calls follow the shape of the dose curve; as a rule, active = well fitted cell-killing curve with a large enough effect; inconclusive = small, poorly fitted or top-dose-only effect; inactive = flat fitted curve, though single readings scatter.
Answer with one of the outcomes given here: 1 (yes) for active, 0 (no) for inactive

Consider the following illustrative entries.
COP(=O)(OC)OC=C(Cl)Cl	0 (no)
O=C(CCl)c1ccc(Cl)cc1Cl	1 (yes)
Oc1ccc(Cl)cc1Sc1cc(Cl)ccc1O	1 (yes)

Data request: Entry CN(C)C(=S)SSC(=S)N(C)C : call = ?
Data returned: 1 (yes)

###

test: NFAT Signaling Pathway (AID 444); details: Jurkat NFAT-bla M1, carbachol, beta-lactamase ratio, 5 h; at 17.2 µM (top of the series);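 note: carbachol stimulus at about its EC50 of 1 µM final; % is set by controls: 0 for no effect and ±100 for the full control effect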
Results filed as inconclusive are left out.
Measured activity change, negative = inhibition, listed per entry for reference.
Supply the numeric figure in %, leaving out any unit text.

c1ccc2nc(N3CCNCC3)ccc2c1	-7.47
COc1ccc(CN2CCNCC2)c(OC)c1OC	-8.2
C[C@H](N)[C@H](O)c1ccc(O)c(O)c1	-6.73

Now for a further compound.
Data request: Given the entry NC(=O)CN1CCCC1=O , report its measured activity change, negative = inhibition.
Data returned: -0.917

###

test system: astro; test: Drug repurposing screens with cells derived from glioblastoma tumor samples (AID 1345199); conditions: viability, ATP luminescence, 48 h; series mostly up to 45.9 µM; note: % is set by controls: 0 for no effect and ±100 for the full control effect; nearly all actives have a fitted effect of over 40% in size
Results filed as inconclusive are left out. Activity calls are given as the source filed them. The call rests on the fitted dose curve; in most records, active means well fitted inhibition curve with a large enough effect; inconclusive means small, poorly fitted or top-dose-only effect; inactive means flat fitted curve, though single readings scatter.
property.name: outcome

Some solved entries appear below for comparison.
CC(C)=C[C@@H]1[C@@H](C(=O)OCc2coc(Cc3ccccc3)c2)C1(C)C	inactive
CC(C)[N+](C)(CCC(C(N)=O)(c1ccccc1)c1ccccc1)C(C)C	inactive
C[C@@H]1CN(C2CCC(C#N)(c3ccc(F)cc3)CC2)CC[C@]1(C(=O)O)c1ccccc1 (stereo not given in full)	inactive
CN1C(=O)[C@@H](NC(=O)c2cc3ccccc3[nH]2)N=C(c2ccccc2)c2ccccc21	inactive

Now for a further compound.
Data request: Given the entry CCC1(c2ccccc2)CCC(=O)NC1=O (stereo not given) , report its measured outcome.
Data returned: inactive

###

settings: Ebola virus entry assay, ratio channel
Active and inactive are the calls of the source.
Answer with one of the outcomes given here: 1 = active, -1 = inactive

C[N+](C)(C)CCOC(=O)C(O)(c1ccccc1)c1ccccc1	-1
CC(C)n1nc(-c2cc3cc(O)ccc3[nH]2)c2c(N)ncnc21	1
NC(=O)C1(N2CCCCC2)CCN(CCCN2c3ccccc3CCc3ccc(Cl)cc32)CC1	1
CC(C)NCCCC1(C(N)=O)c2ccccc2-c2ccccc21	-1
Cc1oc(-c2ccccc2)nc1CCC(=O)c1ccc(CC2SC(=O)NC2=O)cc1 (stereo unspecified)	-1

Data request: Entry C[C@@H]1C[C@H]2[C@@H]3CCC4=CC(=O)C=C[C@]4(C)[C@@]3(F)[C@@H](O)C[C@]2(C)[C@H]1C(=O)CO : call = ?
Data returned: -1

Data request: Entry CCOC(=O)[C@@](C)(N)Cc1ccc(O)c(O)c1 : call = ?
Data returned: -1

Data request: Entry CCOC(=O)N1CCC(Nc2ccc(Cl)cc2N)CC1 : call = ?
Data returned: -1

Data request: Entry Cc1cc(C(C)(C)C)cc(C)c1CC1=NCCN1 : call = ?
Data returned: 1

Data request: Entry CCOC(=O)C(C)(C)Oc1ccc(Cl)cc1 : call = ?
Data returned: -1

Data request: Entry Nc1c2c(nc3ccccc13)CCCC2O (stereo unspecified) : call = ?
Data returned: -1

###

details: Ebola virus entry assay, green fluorescence channel
Potency and affinity values are given separately. Calls of active or inactive are those of the source.
property.name: efficacy

c1ccc(CC2=NCCN2)cc1	-17.9% (inactive)
O=C1C(c2[nH]c3ccccc3c2O)=Nc2ccccc21	51.6% (inactive)

Data request: Given the entry C=CC[C@]1(O)CC[C@H]2[C@@H]3CCC4=CC(=O)CCC4=C3C=C[C@@]21C , report its measured efficacy.
Data returned: 89.4% (inactive)

Data request: Given the entry CNC(=O)c1c(I)c(NC(=O)CCCCC(=O)Nc2c(I)c(C(=O)O)c(I)c(C(=O)NC)c2I)c(I)c(C(=O)O)c1I , report its measured efficacy.
Data returned: -24% (inactive)

Data request: Given the entry CC(C)=CCC/C(C)=C/CC/C(C)=C/C(=O)OCC(=O)[C@@]1(O)CC[C@H]2[C@@H]3CCC4=CC(=O)C=C[C@]4(C)[C@H]3[C@@H](O)C[C@@]21C , report its measured efficacy.
Data returned: 14.4% (inactive)

###

conditions: Ebola virus entry assay, blue channel fluorescence
The source made the active and inactive calls.
Answer with one of the outcomes given here: 1 = active, 0 = inactive

Consider the following illustrative entries.
O=c1[nH]c(=O)c2[nH]c(=O)[nH]c2[nH]1	0
O=c1[nH]c2ccccc2n1CCCN1CCN(C(c2ccccc2)c2ccccc2)CC1	1
C[C@@H]1O[C@@H](O[C@@H]2C=C3CC[C@@H]4[C@H](CC[C@]5(C)[C@@H](c6ccc(=O)oc6)CC[C@]45O)[C@@]3(C)CC2)[C@H](O)[C@H](O)[C@H]1O	1
C/C=C(/C(=C/C)c1ccc(O)cc1)c1ccc(O)cc1	1
CCOC(=O)n1ccn(C)c1=S	0

Data request: Entry Oc1ccc(Cl)cc1Sc1cc(Cl)ccc1O : call = ?
Data returned: 1

Data request: Entry O=C(O)c1ccc(OCCN2CCCCC2)cc1 : call = ?
Data returned: 0

Data request: Entry CCCCNc1c(C(=O)OCC)c(C)nc2c1cnn2CC : call = ?
Data returned: 1

Data request: Entry OC[C@H]1O[C@@H](O[C@@H]2[C@@H](CO)O[C@](O)(CO)[C@H]2O)[C@H](O)[C@@H](O)[C@H]1O : call = ?
Data returned: 0

Data request: Entry Nc1ccc(N=Nc2ccccc2)c(N)n1 : call = ?
Data returned: 1

Data request: Entry CCOc1ccc(NC(C)=O)cc1 : call = ?
Data returned: 0

Data request: Entry CN(Cc1ccc(C(C)(C)C)cc1)Cc1cccc2ccccc12 : call = ?
Data returned: 1
